- System: AgrC-I (Staphylococcus aureus, UniProt O07911)
- Sequence (O07911 1-430): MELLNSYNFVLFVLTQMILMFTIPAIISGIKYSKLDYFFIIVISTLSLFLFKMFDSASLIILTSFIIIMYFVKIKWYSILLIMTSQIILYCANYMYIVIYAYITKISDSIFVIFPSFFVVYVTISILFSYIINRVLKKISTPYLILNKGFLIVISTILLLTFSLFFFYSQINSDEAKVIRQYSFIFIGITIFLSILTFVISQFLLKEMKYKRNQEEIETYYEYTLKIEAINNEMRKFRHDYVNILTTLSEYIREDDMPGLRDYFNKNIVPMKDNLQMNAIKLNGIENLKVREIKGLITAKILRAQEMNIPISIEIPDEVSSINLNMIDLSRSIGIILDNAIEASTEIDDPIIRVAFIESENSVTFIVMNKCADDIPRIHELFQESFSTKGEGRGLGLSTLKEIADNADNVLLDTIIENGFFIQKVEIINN
- Format: cell-based, S. aureus
- Protocol conditions: read-out: AgrC-I IC50; fluorescence reporter strain; AIPs tested over 200 fM − 10 μM or (b1) 2.5 pM − 10 μM; triplicate
Positions of bridges follow the written chain, without caps; N, C: chain ends. Residues, ends and D or L forms follow the SMILES beside them.
Collected IC50 values appear next to each entry.

// known answers, use as guide
INSERT INTO assay_data (compound, assay_metric, result_value) VALUES
  ('CC[C@H](C)[C@H](N)C(=O)N[C@@H](CC(N)=O)C(=O)N[C@H]1CSC(=O)[C@H](CC(C)C)NC(=O)[C@H](CC(C)C)NC(=O)[C@H](Cc2ccccc2)NC(=O)CN(CC(=O)O)C1=O [AIP-III nD4, I-N-(C-nD-F-L-L)]', 'IC50', '162 nM'),
  ('CC[C@H](C)[C@H](N)C(=O)N[C@@H](CC(N)=O)C(=O)N[C@H]1CSC(=O)[C@H](CC(C)C)NC(=O)[C@H](C)NC(=O)[C@H](Cc2ccccc2)NC(=O)[C@H](CC(=O)O)NC1=O [AIP-III L6A, I-N-(C-D-F-A-L)] (H-INCDFAL; thioester 3-C)', 'IC50', '> 200 nM'),
  ('CC[C@H](C)[C@H](N)C(=O)N[C@@H](CC(N)=O)C(=O)N[C@H]1CSC(=O)[C@H](C)NC(=O)[C@H](CC(C)C)NC(=O)[C@H](Cc2ccccc2)NC(=O)[C@H](CC(=O)O)NC1=O [AIP-III L7A, I-N-(C-D-F-L-A)] (H-INCDFLA; thioester 3-C)', 'IC50', '> 200 nM');

Alright, here's another compound for you.
What value of IC50 has been reported for the following compound? CC[C@H](C)[C@H](N)C(=O)N[C@@H](CC(N)=O)C(=O)N[C@H]1CSC(=O)[C@H](CC(C)C)NC(=O)[C@H](CC(C)C)NC(=O)[C@H](C)NC(=O)[C@H](CC(=O)O)NC1=O [AIP-III F5A, I-N-(C-D-A-L-L)] (H-INCDALL; thioester 3-C)
> 200 nM

* * *

Items are presented alongside their recorded pIC50.
- System: AgrC-II (Staphylococcus aureus)
- Type: cell-based, S. aureus
- Protocol conditions: read-out: AgrC-II IC50; second-generation analogues, fluorescence reporter strain; 200 fM − 10 μM
Positions of bridges follow the written chain, without caps; N, C: chain ends. Residues, ends and D or L forms follow the SMILES beside them.
Entry type: numeric. Quantity: pIC50, the -log10 of concentration in molar units.

Below are worked cases with known answers.
INSERT INTO results (molecule, result_value) VALUES
  ('CC(=O)N[C@H]1CSC(=O)[C@H](CC(C)C)NC(=O)[C@H](CC(C)C)NC(=O)[C@H](Cc2ccccc2)NC(=O)[C@H](CC(=O)O)NC1=O [tAIP-III, Ac-(C-D-F-L-L)] (Ac-CDFLL; thioester 1-C)', 8.82),
  ('CC[C@H](C)[C@H](N)C(=O)N[C@@H](C)C(=O)N[C@H]1CSC(=O)[C@H](CC(C)C)NC(=O)[C@H](CC(C)C)NC(=O)[C@H](Cc2ccccc2)NC(=O)[C@H](C)NC1=O [AIP-III N2A/D4A, I-A-(C-A-F-L-L)] (H-IACAFLL; thioester 3-C)', 9.69),
  ('CC(C)C[C@@H]1NC(=O)[C@H](Cc2ccccc2)NC(=O)[C@H](CC(=O)O)NC(=O)[C@@H](NC(=O)[C@H](C)NC(=O)[C@H](C)N)CSC(=O)[C@H](CC(C)C)NC1=O [AIP-III I1A/N2A, A-A-(C-D-F-L-L)] (H-AACDFLL; thioester 3-C)', 8.36);

Bench note: what pIC50 did CC(=O)N[C@H]1CSC(=O)[C@H](CC(C)C)NC(=O)[C@H](CC(C)C)NC(=O)[C@H](Cc2ccc(O)cc2)NC(=O)[C@H](C)NC1=O [tAIP-III D2A/F3Y, Ac-(C-A-Y-L-L)] (Ac-CAYLL; thioester 1-C) show?
8.94

* * *

- System: AgrC-II (Staphylococcus aureus)
- Type: cell-based, S. aureus
- Protocol conditions: read-out: AgrC-II IC50; fluorescence reporter strain; AIPs tested over 200 fM − 10 μM or (b1) 2.5 pM − 10 μM; triplicate
Positions of bridges follow the written chain, without caps; N, C: chain ends. Non-standard residues stand in square brackets, D forms with d. Residues, ends and D or L forms follow the SMILES beside them. *: point of attachment. X1 = CC[C@@H](C)C1NC(=O)CN(CC(=O)*)C1=O; NMeI = CC[C@H](C)[C@H](NC)C(=O)O; Nphe = O=C(O)CNCc1ccccc1
Assay metric: IC50

INSERT INTO results (compound, result_value) VALUES
  ('CC(C)C[C@@H]1NC(=O)[C@H](Cc2ccccc2)NC(=O)[C@H](CC(=O)O)NC(=O)[C@@H](NC(=O)[C@H](CC(N)=O)NC(=O)[C@H](C)N)CSC(=O)[C@H](CC(C)C)NC1=O [AIP-III I1A, A-N-(C-D-F-L-L)] (H-ANCDFLL; thioester 3-C)', '4.26 nM'),
  ('CC[C@@H](C)C1NC(=O)CN(CC(=O)N[C@H]2CSC(=O)[C@H](CC(C)C)NC(=O)[C@H](CC(C)C)NC(=O)[C@H](Cc3ccccc3)NC(=O)[C@H](CC(=O)O)NC2=O)C1=O (stereo partly drawn) [AIP-III nN2 DKP, (I-nN)-(C-D-F-L-L)] (X1-CDFLL; thioester 1-C)', '4.28 nM'),
  ('CC[C@H](C)[C@H](N)C(=O)N[C@@H](CC(N)=O)C(=O)N[C@H]1CSC(=O)[C@H](CC(C)C)NC(=O)[C@H](CC(C)C)NC(=O)CN(Cc2ccccc2)C(=O)[C@H](CC(=O)O)NC1=O [AIP-III nF5, I-N-(C-D-nF-L-L)] (H-INCD[Nphe]LL; thioester 3-C)', '75.6 nM'),
  ('CC[C@H](C)[C@H](N)C(=O)N[C@@H](CC(N)=O)C(=O)N[C@H]1CSC(=O)[C@H](CC(C)C)NC(=O)[C@H](CC(C)C)NC(=O)[C@H](Cc2ccccc2)NC(=O)CN(CC(=O)O)C1=O', '28.3 nM'),
  ('CC[C@H](C)[C@H](N)C(=O)N[C@@H](CC(N)=O)C(=O)N[C@H]1CSC(=O)[C@H](C)NC(=O)[C@H](CC(C)C)NC(=O)[C@H](Cc2ccccc2)NC(=O)[C@H](CC(=O)O)NC1=O [AIP-III L7A, I-N-(C-D-F-L-A)] (H-INCDFLA; thioester 3-C)', '> 200 nM');

Test system AgrC-II (Staphylococcus aureus); read-out IC50; what value for CC[C@H](C)[C@H](NC)C(=O)N[C@@H](CC(N)=O)C(=O)N[C@H]1CSC(=O)[C@H](CC(C)C)NC(=O)[C@H](CC(C)C)NC(=O)[C@H](Cc2ccccc2)NC(=O)[C@H](CC(=O)O)NC1=O [AIP-III N-Me-I1, NMeI-N-(C-D-F-L-L)] (H-[NMeI]NCDFLL; thioester 3-C) ?
12.8 nM

Would you kindly repeat that for CC[C@H](C)[C@H](N)C(=O)N[C@@H](C)C(=O)N[C@H]1CSC(=O)[C@H](CC(C)C)NC(=O)[C@H](CC(C)C)NC(=O)[C@H](Cc2ccccc2)NC(=O)[C@H](CC(=O)O)NC1=O [AIP-III N2A, I-A-(C-D-F-L-L)] (H-IACDFLL; thioester 3-C) ?
0.732 nM

* * *

- System: AgrC-II (Staphylococcus aureus, UniProt O33587)
- Sequence (O33587 1-437): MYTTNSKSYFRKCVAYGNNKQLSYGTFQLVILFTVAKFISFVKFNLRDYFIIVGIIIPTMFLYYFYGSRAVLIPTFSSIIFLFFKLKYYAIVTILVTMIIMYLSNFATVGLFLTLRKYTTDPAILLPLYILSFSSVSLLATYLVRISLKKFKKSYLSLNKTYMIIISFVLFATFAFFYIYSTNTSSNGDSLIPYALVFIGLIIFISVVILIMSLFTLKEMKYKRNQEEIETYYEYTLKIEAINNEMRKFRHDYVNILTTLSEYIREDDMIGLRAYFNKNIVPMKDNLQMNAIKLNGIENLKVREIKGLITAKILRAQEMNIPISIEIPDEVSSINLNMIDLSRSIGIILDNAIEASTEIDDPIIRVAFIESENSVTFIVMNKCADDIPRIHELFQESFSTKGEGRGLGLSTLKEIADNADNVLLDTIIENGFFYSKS
- Assay type: cell-based, S. aureus
- Protocol conditions: read-out: AgrC-II IC50; fluorescence reporter strain; AIPs tested over 200 fM − 10 μM or (b1) 2.5 pM − 10 μM; triplicate
Positions of bridges follow the written chain, without caps; N, C: chain ends. Non-standard residues stand in square brackets, D forms with d. Residues, ends and D or L forms follow the SMILES beside them. NMeF = CN[C@@H](Cc1ccccc1)C(=O)O; NMeD = CN[C@@H](CC(=O)O)C(=O)O; NMeC = CN[C@@H](CS)C(=O)O
Listed here: items and their measured pIC50.
Reminder that pIC50 means the negative base-10 logarithm of the concentration expressed in mol/L.

INSERT INTO results (compound, assay_metric, result_value) VALUES
  ('CC[C@H](C)[C@H](N)C(=O)N[C@@H](CC(N)=O)C(=O)N[C@H]1CSC(=O)[C@H](CC(C)C)NC(=O)[C@H](CC(C)C)NC(=O)[C@H](Cc2ccccc2)N(C)C(=O)[C@H](CC(=O)O)NC1=O [AIP-III N-Me-F5, I-N-(C-D-NMeF-L-L)] (H-INCD[NMeF]LL; thioester 3-C)', 'pIC50', 8.71);

Returns the measured pIC50 for the input compound. Input: CC[C@H](C)[C@H](N)C(=O)N[C@@H](CC(N)=O)C(=O)N[C@H]1CSC(=O)[C@H](CC(C)C)NC(=O)[C@H](CC(C)C)NC(=O)[C@H](Cc2ccccc2)NC(=O)[C@H](CC(=O)O)N(C)C1=O [AIP-III N-Me-D4, I-N-(C-NMeD-F-L-L)] (H-INC[NMeD]FLL; thioester 3-C)
8.10

Moving on to the next compound: CC[C@H](C)[C@@H]1NC(=O)[C@H](Cc2ccccc2)NC(=O)[C@H](CC(=O)O)NC(=O)[C@@H](NC(=O)[C@@H](NC(=O)[C@H](CO)NC(=O)[C@@H](N)Cc2ccc(O)cc2)[C@@H](C)O)CSC(=O)[C@H](CCSC)NC1=O [AIP-I, Y-S-T-(C-D-F-I-M), reference compound] (H-YSTCDFIM; thioester 4-C)
8.10

Next: CC[C@H](C)[C@H](N)C(=O)N[C@@H](CC(N)=O)C(=O)N(C)[C@H]1CSC(=O)[C@H](CC(C)C)NC(=O)[C@H](CC(C)C)NC(=O)[C@H](Cc2ccccc2)NC(=O)[C@H](CC(=O)O)NC1=O [AIP-III N-Me-C3, I-N-(NMeC-D-F-L-L)] (H-IN[NMeC]DFLL; thioester 3-C)
6.87
